Quick reference: melting point of the listed items.
observation_type: melting point

1. COc1ccc(CCNc2nc3ccc(CNc4cc(C)cc(C)c4)cc3n2Cc2nc(C)ccc2O)cc1	178 °C
2. Cc1cc(C)cc(NCc2ccc3nc(NCCCN4CCCCC4)n(Cc4nc(C)ccc4O)c3c2)c1	161 °C
3. Cc1cc(C)cc(NCc2ccc3nc(NCC(O)CO)n(Cc4nc(C)ccc4O)c3c2)c1 (centres unmarked)	128 °C
4. Cc1ccc(O)c(Cn2c(NC3CCN(CCN)CC3)nc3ccc(C=Cc4ccccc4)cc32)n1.Cl [Compound 146]	260 °C
5. Cc1cccc(SCc2ccc3nc(NC4CCN(C)CC4)n(Cc4nc(C)ccc4O)c3c2)c1	202 °C
6. Cc1cc(C)cc(NCc2ccc3nc(NCCCN4CCN(C)CC4)n(Cc4nc(C)ccc4O)c3c2)c1	150 °C
7. Cc1ccc(O)c(Cn2c(NC3CCN(C)CC3)nc3ccccc32)n1	> 260 °C
8. Cc1ccc(O)c(Cn2c(NC3CCN(CCN)CC3)nc3ccc(C=Cc4ccccc4)cc32)n1.Cl (hydrate or solvate) [Compound 146]	> 260 °C
9. Cc1cccc(C(N)c2ccc3nc(NC4CCN(CCO)CC4)n(Cc4nc(C)ccc4O)c3c2)c1 (centres unmarked)	137 °C
10. Cc1ccc(O)c(Cn2c(NC3CCN(CCN)CC3)nc3ccc(CCc4ccccc4)cc32)n1.Cl	181 °C
11. Cc1cccc(NCc2cc(C)c3nc(NC4CCN(CCO)CC4)n(Cc4nc(C)ccc4O)c3c2)c1	123 °C
12. Cc1cccc(CNc2ccc3nc(NC4CCN(C)CC4)n(Cc4nc(C)ccc4O)c3c2)c1	240 °C
13. Cc1ccc(O)c(Cn2c(NC3CCN(CCO)CC3)nc3ccc(CCCN)cc32)n1.Cl	185 °C
14. Cc1cccc(NC(=O)c2ccc3nc(NC4CCN(C)CC4)n(Cc4nc(C)ccc4O)c3c2)c1	172 °C

Source: patent US8278455B2
